tested on: MCF7 breast cancer cells; experiment: In vitro panel of human tumour lines (TNO): MCF-7; type: cell-based; conditions: 0.01 μg/ml, about 72 hours; note: key: -: no inhibition of cell growth; +: total cell-kill
Measured Attribute: in vitro activity score, MCF-7

[[record]]
compound = "COC1=CC(=O)c2c(c(COC(C)=O)c(/C=C/COC(C)=O)n2C)C1=O [E.O. 1]"
measured_attribute = "in vitro activity score, MCF-7"
experimental_result = "-"

[[record]]
compound = "CC1CN1C1=CC(=O)c2c(c(CO)c(/C=C/CO)n2C)C1=O (centres unmarked) [E.O. 8]"
measured_attribute = "in vitro activity score, MCF-7"
experimental_result = "-"

[[record]]
compound = "N.N.[Cl][Pt][Cl] [Cisplatin, reference compound]"
measured_attribute = "in vitro activity score, MCF-7"
experimental_result = "-"

[[record]]
compound = "COC(=O)/C=C/c1c(C(=O)OC)c2c(n1C)C(=O)C=C(N1CC1)C2=O [E.O. 22]"
measured_attribute = "in vitro activity score, MCF-7"
experimental_result = "-"

[[record]]
compound = "CO[C@@]12[C@H](COC(N)=O)C3=C(C(=O)C(C)=C(N)C3=O)N1C[C@@H]1N[C@@H]12 [MMC, mitomycin C, reference compound]"
measured_attribute = "in vitro activity score, MCF-7"
experimental_result = "-"

[[record]]
compound = "CN(Cc1cnc2nc(N)nc(N)c2n1)c1ccc(C(=O)N[C@@H](CCC(=O)O)C(=O)O)cc1 [Methotrex., reference compound]"
measured_attribute = "in vitro activity score, MCF-7"
experimental_result = "-"

[[record]]
compound = "CC(=O)OCc1c2c(n(C)c1/C=C/CO)C(=O)C=C(N1CC1)C2=O [E.O. 4A]"
measured_attribute = "in vitro activity score, MCF-7"
experimental_result = "-"

[[record]]
compound = "COC(=O)OC/C=C/c1c(COC(=O)OC)c2c(n1C)C(=O)C=C(OC)C2=O [E.O. 2]"
measured_attribute = "in vitro activity score, MCF-7"
experimental_result = "-"


----------
assay: Half-wave reduction potentials / polarography (University of Utrecht); assay type: physicochemical; conditions: Table IA; only the first (quinone) reduction potential
Measured Attribute: E1/2, halve wave reduction potential

[[record]]
compound = "COC(=O)/C=C/c1c(C(=O)OC)c2c(n1C)C(=O)C=C(N1CCOCC1)C2=O [E.O. 55]"
experimental_result = "-240 mV"

[[record]]
compound = "COC(=O)/C=C/c1c(C(=O)OC)c2c(n1C)C(=O)C=C(N1CC1)C2=O [E.O. 22]"
experimental_result = "-179 mV"

[[record]]
compound = "COC(=O)/C=C/c1c(C(=O)OC)c2c(n1C)C(=O)C(C)=C(N1CC1)C2=O [E.O. 34]"
experimental_result = "-239 mV"

[[record]]
compound = "COC(=O)/C=C/c1c(C(=O)OC)c2c(n1C)C(=O)C=C(OC)C2=O [E.O. 14]"
experimental_result = "-243 mV"

[[record]]
compound = "COC(=O)/C=C/c1c(C(=O)OC)c2c(n1C)C(=O)C=C(O)C2=O [E.O. 24]"
experimental_result = "-299 mV"

[[record]]
compound = "COC(=O)/C=C/c1c(C(=O)OC)c2c(n1C)C(=O)C=C(N1CC1C)C2=O (centres unmarked) [E.O. 28]"
experimental_result = "-171 mV"

[[record]]
compound = "COC(=O)/C=C/c1[nH]c2c(c1C(=O)OC)C(=O)C(OC)=CC2=O [E.O. 29]"
experimental_result = "-211 mV"

[[record]]
compound = "COC(=O)/C=C/c1c(C(=O)OC)c2c(n1C)C(=O)C=C(NCC(O)CO)C2=O (centres unmarked) [E.O. 23]"
experimental_result = "-343 mV"

